All values here come from paper PMC9784495.

assay: Pharmacokinetics of ginsenosides in plasma after a single oral dose of 6 g FRG or RG, crossover clinical trial; type: in vivo, human; conditions: human, in vivo, po, plasma, after 6 g RG oral single dose, 0 to 24 h, mean ± SD; read-out: AUC24

smiles.record: CC(C)=CCC[C@](C)(O)[C@H]1CC[C@]2(C)[C@@H]1[C@H](O)C[C@@H]1[C@@]3(C)CC[C@H](O[C@@H]4O[C@H](CO)[C@@H](O)[C@H](O)[C@H]4O)C(C)(C)[C@@H]3CC[C@]12C
result.unit: ng·h/mL
AUC: 8.97

---

experiment: Pharmacokinetics of ginsenosides in plasma after a single oral dose of 6 g FRG or RG, crossover clinical trial; format: in vivo, human; details: human, in vivo, po, plasma, after 6 g FRG oral single dose, 0 to 24 h, mean ± SD; read-out: AUC24

molecule: CC(C)=CCC[C@](C)(O)[C@H]1CC[C@]2(C)[C@@H]1[C@H](O)C[C@@H]1[C@@]3(C)CC[C@H](O[C@@H]4O[C@H](CO)[C@@H](O)[C@H](O)[C@H]4O)C(C)(C)[C@@H]3CC[C@]12C [Rh2]
AUC: 0.135 µg·h/mL

---

AUC(0-t) for assorted compounds
Experiment: Pharmacokinetics of ginsenosides in plasma after a single oral dose of 6 g FRG or RG, crossover clinical trial
Assay type: in vivo, human
Details: human, plasma, po, plasma, after 6 g RG oral single dose, mean ± SD; read-out: AUClast
Method: This study was designed as a randomized, open-label, single-dose, 2-sequence, 2-period crossover study with a washout period of 2 weeks to compare the pharmacokinetic parameters of ginsenosides in RG and FRG. […] CY, CK, PPD, PPT, and Rh2 were analyzed as previously described. […] Data were analyzed and processed using the Analyst 1.6.2 program (SCIEX, Framingham, MA, USA). […]
property.measured: AUC(0-t) (ng·h/mL)

smiles.record: CC(C)=CCC[C@](C)(O)[C@H]1CC[C@]2(C)[C@@H]1[C@H](O)C[C@@H]1[C@@]3(C)CC[C@H](O)C(C)(C)[C@@H]3CC[C@]12C
value: 20.3
--
smiles.record: CC(C)=CCC[C@](C)(O[C@@H]1O[C@H](CO)[C@@H](O)[C@H](O)[C@H]1O)[C@H]1CC[C@]2(C)[C@@H]1[C@H](O)C[C@@H]1[C@@]3(C)CC[C@H](O)C(C)(C)[C@@H]3CC[C@]12C
value: 145
--
smiles.record: CC(C)=CCC[C@](C)(O[C@@H]1O[C@H](CO[C@@H]2O[C@H](CO)[C@@H](O)[C@H](O)[C@H]2O)[C@@H](O)[C@H](O)[C@H]1O)[C@H]1CC[C@]2(C)[C@@H]1[C@H](O)C[C@@H]1[C@@]3(C)CC[C@H](O[C@@H]4O[C@H](CO)[C@@H](O)[C@H](O)[C@H]4O[C@@H]4O[C@H](CO)[C@@H](O)[C@H](O)[C@H]4O)C(C)(C)[C@@H]3CC[C@]12C
value: 62.4
--
smiles.record: CC(C)=CCC[C@](C)(O)[C@H]1CC[C@]2(C)[C@@H]1[C@H](O)C[C@@H]1[C@@]3(C)CC[C@H](O)C(C)(C)[C@@H]3[C@@H](O)C[C@]12C
value: 45.7

---

AUC for assorted compounds
assay: Pharmacokinetics of ginsenosides in plasma after a single oral dose of 6 g FRG or RG, crossover clinical trial; type: in vivo, human; details: human, plasma, po, plasma, after 6 g FRG oral single dose, 0 to 24 h, mean ± SD; read-out: AUC24

compound: CC(C)=CCC[C@](C)(O)[C@H]1CC[C@]2(C)[C@@H]1[C@H](O)C[C@@H]1[C@@]3(C)CC[C@H](O)C(C)(C)[C@@H]3[C@@H](O)C[C@]12C
AUC / ng·h/mL: 63.7
--
compound: CC(C)=CCC[C@](C)(O[C@@H]1O[C@H](CO)[C@@H](O)[C@H](O)[C@H]1O)[C@H]1CC[C@]2(C)[C@@H]1[C@H](O)C[C@@H]1[C@@]3(C)CC[C@H](O)C(C)(C)[C@@H]3CC[C@]12C
AUC / ng·h/mL: 8710
--
compound: CC(C)=CCC[C@](C)(O[C@@H]1O[C@H](CO)[C@@H](O)[C@H](O)[C@H]1O)[C@H]1CC[C@]2(C)[C@@H]1[C@H](O)C[C@@H]1[C@@]3(C)CC[C@H](O[C@@H]4O[C@H](CO)[C@@H](O)[C@H](O)[C@H]4O)C(C)(C)[C@@H]3CC[C@]12C [Ginsenoside F2]
AUC / ng·h/mL: 142
--
compound: CC(C)=CCC[C@](C)(O)[C@H]1CC[C@]2(C)[C@@H]1[C@H](O)C[C@@H]1[C@@]3(C)CC[C@H](O)C(C)(C)[C@@H]3CC[C@]12C
AUC / ng·h/mL: 48.7

---

assay: Pharmacokinetics of ginsenosides in plasma after a single oral dose of 6 g FRG or RG, crossover clinical trial; format: in vivo, human; conditions: human, in vivo, po, plasma, after 6 g RG oral single dose, mean ± SD; read-out: AUClast

smiles.record: CC(C)=CCC[C@](C)(O)[C@H]1CC[C@]2(C)[C@@H]1[C@H](O)C[C@@H]1[C@@]3(C)CC[C@H](O[C@@H]4O[C@H](CO)[C@@H](O)[C@H](O)[C@H]4O)C(C)(C)[C@@H]3CC[C@]12C
result.unit: ng·h/mL
AUC(0-t): 8.35

---

assay: Pharmacokinetics of ginsenosides in plasma after a single oral dose of 6 g FRG or RG, crossover clinical trial; type: in vivo, human; details: human, plasma, po, after 6 g FRG oral single dose, median (min, max); read-out: Tmax

molecule: CC(C)=CCC[C@](C)(O[C@@H]1O[C@H](CO)[C@@H](O)[C@H](O)[C@H]1O)[C@H]1CC[C@]2(C)[C@@H]1[C@H](O)C[C@@H]1[C@@]3(C)CC[C@H](O)C(C)(C)[C@@H]3CC[C@]12C [CK, compound K]
Tmax / h: 3.02
--
molecule: CC(C)=CCC[C@](C)(O[C@@H]1O[C@H](CO)[C@@H](O)[C@H](O)[C@H]1O)[C@H]1CC[C@]2(C)[C@@H]1[C@H](O)C[C@@H]1[C@@]3(C)CC[C@H](O[C@@H]4O[C@H](CO)[C@@H](O)[C@H](O)[C@H]4O)C(C)(C)[C@@H]3CC[C@]12C [Ginsenoside F2]
Tmax / h: 4.03
--
molecule: CC(C)=CCC[C@](C)(O)[C@H]1CC[C@]2(C)[C@@H]1[C@H](O)C[C@@H]1[C@@]3(C)CC[C@H](O)C(C)(C)[C@@H]3CC[C@]12C [PPD, protopanaxadiol]
Tmax / h: 12
--
molecule: CC(C)=CCC[C@](C)(O)[C@H]1CC[C@]2(C)[C@@H]1[C@H](O)C[C@@H]1[C@@]3(C)CC[C@H](O)C(C)(C)[C@@H]3[C@@H](O)C[C@]12C [PPT, protopanaxatriol]
Tmax / h: 6

---

test: Pharmacokinetics of ginsenosides in plasma after a single oral dose of 6 g FRG or RG, crossover clinical trial; assay type: in vivo, human; settings: human, plasma, po, plasma, after 6 g FRG oral single dose, mean ± SD; read-out: AUClast
AUC(0-t) for assorted compounds
property.measured: AUC(0-t) (ng·h/mL)

compound: CC(C)=CCC[C@](C)(O[C@@H]1O[C@H](CO)[C@@H](O)[C@H](O)[C@H]1O)[C@H]1CC[C@]2(C)[C@@H]1[C@H](O)C[C@@H]1[C@@]3(C)CC[C@H](O)C(C)(C)[C@@H]3CC[C@]12C [CK, compound K]
value: 9440
//
compound: CC(C)=CCC[C@](C)(O)[C@H]1CC[C@]2(C)[C@@H]1[C@H](O)C[C@@H]1[C@@]3(C)CC[C@H](O)C(C)(C)[C@@H]3[C@@H](O)C[C@]12C [PPT, protopanaxatriol]
value: 83
//
compound: CC(C)=CCC[C@](C)(O[C@@H]1O[C@H](CO)[C@@H](O)[C@H](O)[C@H]1O)[C@H]1CC[C@]2(C)[C@@H]1[C@H](O)C[C@@H]1[C@@]3(C)CC[C@H](O[C@@H]4O[C@H](CO)[C@@H](O)[C@H](O)[C@H]4O)C(C)(C)[C@@H]3CC[C@]12C [Ginsenoside F2]
value: 168
